# assayed.target: T1, recombinant, biotinylated, Human 4-1BB/TNFRSF9/CD137-Fc (human, UniProt Q07011 24-186, biotinylated (F2NNK selection))
# T1 construct: also called 4-1BB/CD137; not shown: Fc
# T1 sequence (Q07011 24-186 limits assumed): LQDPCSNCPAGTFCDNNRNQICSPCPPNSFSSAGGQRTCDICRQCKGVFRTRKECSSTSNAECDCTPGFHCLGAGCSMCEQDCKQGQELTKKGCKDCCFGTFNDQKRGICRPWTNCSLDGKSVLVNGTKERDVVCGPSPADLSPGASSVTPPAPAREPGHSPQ
# measurement.protocol: phage ELISA, target-Fc against non-specific control
Mark n for ELISA ratio (target to background) values under 10 ratio, and y for everything at or above.

Here are 6 binders together with their reported answers.
>>> category_label("SEQ ID NO 15 (designed binder) MGSWYEFSMRLWAIDQRLYALGGSEAELAAFEKEIAAFESELQAYKGKGNPEVEALRAKAAYIRWKLQAYRHN")
"y"
>>> category_label("SEQ ID NO 12 (designed binder) MGSWVEFGHRLWAIDQRLYALGGSEAELAAFEKEIAAFESELQAYKGKGNPEVEKLRQRAAFIRFRLQAYRHN")
"y"
>>> category_label("SEQ ID NO 16 (designed binder) MGSWFEFNHRLWAINERLYALGGSEAELAAFEKEIAAFESELQAYKGKGNPEVERLRSMAAFIRYKLQAYRHN")
"y"
>>> category_label("SEQ ID NO 14 (designed binder) MGSWYEFRHRLWAIDQRLYALGGSEAELAAFEKEIAAFESELQAYKGKGNPEVEGLREAAAFIRAKLQAYRHN")
"y"
>>> category_label("SEQ ID NO 18 (designed binder) MGSWYEFHYRLHAIDQRLYALGGSEAELAAFEKEIAAFESELQAYKGKGNPEVEELRIKAAFIRDRLQAYRHN")
"n"
>>> category_label("SEQ ID NO 13 (designed binder) MGSWVEFANRLWAIDQRLFALGGSEAELAAFEKEIAAFESELQAYKGKGNPEVEHLRDQAAFIRHKLQAYRHN")
"y"

Okay, now this binder:
In plain terms: is recorded ELISA ratio (target to background) at least 10 ratio for SEQ ID NO 17 (designed binder) MGSWYEFGHRLWAIDQRLYALGGSEAELAAFEKEIAAFESELQAYKGKGNPEVEYLRETAAHIRTRLQAYRHN ?
n
